# Procedure Details: Biodistribution in BALB/c nu/nu mice bearing PC-3 xenografts
# Assay type: in vivo
# Experimental Setup: female, BALB/c nu/nu, mouse, spleen, iv, total radioactivity; Blockade (co-injection of NOTA-PEG2-RM26), 2 h; read-out: Radionuclide concentration, Spleen
Starred links: 1 amine or outer side, 2 acyl side, 3 side chain; linkers in the order of their positions; H or OH if unused. Non-standard residues stand in square brackets, D forms with d. Residues, ends and D or L forms follow the SMILES beside them. *: point of attachment. NOTA = O=C(O)CN1CCN(CC(=O)O)CCN(CC(=O)*)CC1; Sta = CC(C)C[C@H](N)[C@@H](O)CC(=O)O; X2 = O=C(COc1cccc(CN[*:1])c1)[*:2]; X1 = O=C(Cc1ccccc1CCN[*:1])[*:2]; X3 = O=C(COc1ccccc1CN[*:1])[*:2]
Measured tissue uptake at 2 h, listed per entry.
Your answer should be a plain number; it is taken to be in %ID/g.

Molecule	Result Type	Endpoint Result
CC(=O)N[C@@H](CCCCNC(=O)CN1CCN(CC(=O)O)CCN(CC(=O)O)CC1)C(=O)NCCc1ccccc1CC(=O)N[C@H](Cc1ccccc1)C(=O)N[C@@H](CCC(N)=O)C(=O)N[C@@H](Cc1c[nH]c2ccccc12)C(=O)N[C@@H](C)C(=O)N[C@H](C(=O)NCC(=O)N[C@@H](Cc1c[nH]cn1)C(=O)N[C@@H](CC(C)C)[C@@H](O)CC(=O)N[C@@H](CC(C)C)C(N)=O)C(C)C [[^68Ga]Ga-NOTA-oET-RM26, metal not drawn] (Ac-K(NOTA)[X1][dF]QWAVGH[Sta]L-NH2)	tissue uptake at 2 h	0.28

I would be grateful if you could share the reported tissue uptake at 2 h for CC(=O)N[C@@H](CCCCNC(=O)CN1CCN(CC(=O)O)CCN(CC(=O)O)CC1)C(=O)NCc1cccc(OCC(=O)N[C@H](Cc2ccccc2)C(=O)N[C@@H](CCC(N)=O)C(=O)N[C@@H](Cc2c[nH]c3ccccc23)C(=O)N[C@@H](C)C(=O)N[C@H](C(=O)NCC(=O)N[C@@H](Cc2c[nH]cn2)C(=O)N[C@@H](CC(C)C)[C@@H](O)CC(=O)N[C@@H](CC(C)C)C(N)=O)C(C)C)c1 [[^68Ga]Ga-NOTA-mMA-RM26, metal not drawn] (Ac-K(NOTA)[X2][dF]QWAVGH[Sta]L-NH2) .
1.1

tissue uptake at 2 h for CC(=O)N[C@@H](CCCCNC(=O)CN1CCN(CC(=O)O)CCN(CC(=O)O)CC1)C(=O)NCc1ccccc1OCC(=O)N[C@H](Cc1ccccc1)C(=O)N[C@@H](CCC(N)=O)C(=O)N[C@@H](Cc1c[nH]c2ccccc12)C(=O)N[C@@H](C)C(=O)N[C@H](C(=O)NCC(=O)N[C@@H](Cc1c[nH]cn1)C(=O)N[C@@H](CC(C)C)[C@@H](O)CC(=O)N[C@@H](CC(C)C)C(N)=O)C(C)C [[^68Ga]Ga-NOTA-oMA-RM26, metal not drawn] (Ac-K(NOTA)[X3][dF]QWAVGH[Sta]L-NH2) ?
0.37

====

# Procedure Details: Biodistribution in BALB/c nu/nu mice bearing PC-3 xenografts
# Format: in vivo
# Experimental Setup: female, BALB/c nu/nu, mouse, liver, iv, total radioactivity; Blockade (co-injection of NOTA-PEG2-RM26), 2 h; read-out: Radionuclide concentration, Liver
Starred links: 1 amine or outer side, 2 acyl side, 3 side chain; linkers in the order of their positions; H or OH if unused. Non-standard residues stand in square brackets, D forms with d. Residues, ends and D or L forms follow the SMILES beside them. *: point of attachment. NOTA = O=C(O)CN1CCN(CC(=O)O)CCN(CC(=O)*)CC1; Sta = CC(C)C[C@H](N)[C@@H](O)CC(=O)O; X2 = O=C(COc1cccc(CN[*:1])c1)[*:2]; X1 = O=C(Cc1ccccc1CCN[*:1])[*:2]; X3 = O=C(COc1ccccc1CN[*:1])[*:2]
Items are presented alongside their recorded tissue uptake at 2 h.
Respond with the bare value in %ID/g.

Worked cases, tissue uptake at 2 h given:
Compound	Endpoint Result
CC(=O)N[C@@H](CCCCNC(=O)CN1CCN(CC(=O)O)CCN(CC(=O)O)CC1)C(=O)NCc1ccccc1OCC(=O)N[C@H](Cc1ccccc1)C(=O)N[C@@H](CCC(N)=O)C(=O)N[C@@H](Cc1c[nH]c2ccccc12)C(=O)N[C@@H](C)C(=O)N[C@H](C(=O)NCC(=O)N[C@@H](Cc1c[nH]cn1)C(=O)N[C@@H](CC(C)C)[C@@H](O)CC(=O)N[C@@H](CC(C)C)C(N)=O)C(C)C [[^68Ga]Ga-NOTA-oMA-RM26, metal not drawn] (Ac-K(NOTA)[X3][dF]QWAVGH[Sta]L-NH2)	1.4
CC(=O)N[C@@H](CCCCNC(=O)CN1CCN(CC(=O)O)CCN(CC(=O)O)CC1)C(=O)NCc1cccc(OCC(=O)N[C@H](Cc2ccccc2)C(=O)N[C@@H](CCC(N)=O)C(=O)N[C@@H](Cc2c[nH]c3ccccc23)C(=O)N[C@@H](C)C(=O)N[C@H](C(=O)NCC(=O)N[C@@H](Cc2c[nH]cn2)C(=O)N[C@@H](CC(C)C)[C@@H](O)CC(=O)N[C@@H](CC(C)C)C(N)=O)C(C)C)c1 [[^68Ga]Ga-NOTA-mMA-RM26, metal not drawn] (Ac-K(NOTA)[X2][dF]QWAVGH[Sta]L-NH2)	2.2

Now for a further compound.
Given the entry CC(=O)N[C@@H](CCCCNC(=O)CN1CCN(CC(=O)O)CCN(CC(=O)O)CC1)C(=O)NCCc1ccccc1CC(=O)N[C@H](Cc1ccccc1)C(=O)N[C@@H](CCC(N)=O)C(=O)N[C@@H](Cc1c[nH]c2ccccc12)C(=O)N[C@@H](C)C(=O)N[C@H](C(=O)NCC(=O)N[C@@H](Cc1c[nH]cn1)C(=O)N[C@@H](CC(C)C)[C@@H](O)CC(=O)N[C@@H](CC(C)C)C(N)=O)C(C)C [[^68Ga]Ga-NOTA-oET-RM26, metal not drawn] (Ac-K(NOTA)[X1][dF]QWAVGH[Sta]L-NH2) , report its measured tissue uptake at 2 h.
1.3
